target: MAP kinase-activated protein kinase 3 (Homo sapiens); conditions: at 0.1 µM
Description: GSK_PKIS: MAPKAPK3 mean inhibition at 0.1 uM [Nanosyn]
READOUT NAME: inhibition (%)
Answers are plain numbers, in %.

Examples with answers:
CNC(=O)c1cncc(/C=C/c2c(Cl)cccc2Cl)c1    2.14
COc1cc2ncn(-c3cc(OCc4ccccc4C(F)(F)F)c(C(N)=O)s3)c2cc1OC    4.71
CCn1c(-c2nonc2N)nc2cnc(Oc3cccc(NC(=O)c4ccc(OCCN5CCOCC5)cc4)c3)cc21    3.45

List inhibition for every entry below, keeping the order given.
1. NC(=O)c1cccc(Nc2nccc(Nc3cccc4[nH]ncc34)n2)c1
2. Nc1ncnc2occ(-c3ccc(NC(=O)Nc4cc(C(F)(F)F)cc(C(F)(F)F)c4)cc3)c12
3. CC(=O)Nc1cccc(C#Cc2cncnc2Nc2ccc(OCc3cccc(F)c3)c(Cl)c2)n1
4. Nc1nc(-c2ccc3c(c2)C(=Cc2cc(Br)c(O)c(Br)c2)C(=O)N3)cs1
5. O=C1NC(=O)C(N2CCc3ccccc32)=C1c1ccc(Cl)cc1

1. -2.55
2. 2.58
3. 5.56
4. -1.77
5. 10.4

---

I'd be grateful if you could share measured inhibition for these entries.
biological target: Ephrin type-A receptor 2 (Homo sapiens) (UniProt P29317); details: at 0.1 µM;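 further: reported values are mean percent inhibition of EPHA2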
Sequence (P29317 whole entry): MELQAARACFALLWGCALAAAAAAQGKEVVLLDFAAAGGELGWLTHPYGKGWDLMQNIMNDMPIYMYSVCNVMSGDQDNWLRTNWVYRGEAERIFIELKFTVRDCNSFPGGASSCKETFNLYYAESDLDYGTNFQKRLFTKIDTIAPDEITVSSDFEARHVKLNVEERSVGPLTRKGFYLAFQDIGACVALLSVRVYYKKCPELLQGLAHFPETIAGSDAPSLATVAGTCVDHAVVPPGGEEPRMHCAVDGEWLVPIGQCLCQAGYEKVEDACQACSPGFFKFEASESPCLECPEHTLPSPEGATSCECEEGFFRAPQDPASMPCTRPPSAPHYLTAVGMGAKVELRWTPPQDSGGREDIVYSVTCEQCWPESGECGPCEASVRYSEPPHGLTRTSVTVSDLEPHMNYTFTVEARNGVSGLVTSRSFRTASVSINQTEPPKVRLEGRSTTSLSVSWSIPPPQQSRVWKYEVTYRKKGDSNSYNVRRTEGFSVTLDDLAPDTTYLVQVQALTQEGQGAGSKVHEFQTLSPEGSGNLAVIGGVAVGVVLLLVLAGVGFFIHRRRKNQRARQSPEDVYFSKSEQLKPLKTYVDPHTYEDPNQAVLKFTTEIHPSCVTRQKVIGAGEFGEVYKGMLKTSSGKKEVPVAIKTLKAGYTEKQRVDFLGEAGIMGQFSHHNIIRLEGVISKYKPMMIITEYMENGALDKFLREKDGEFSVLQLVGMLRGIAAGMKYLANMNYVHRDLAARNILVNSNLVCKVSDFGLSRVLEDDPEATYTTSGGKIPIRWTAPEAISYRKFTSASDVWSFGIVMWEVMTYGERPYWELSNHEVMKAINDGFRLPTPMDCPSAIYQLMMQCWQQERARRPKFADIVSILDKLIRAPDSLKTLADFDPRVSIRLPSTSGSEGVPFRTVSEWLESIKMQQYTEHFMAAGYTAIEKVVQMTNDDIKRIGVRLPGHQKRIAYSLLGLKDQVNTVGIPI
Numbers only, in %.

Nc1ncnc2occ(-c3ccc(NC(=O)Nc4cccc(C(F)(F)F)c4)cc3)c12    17.2

Quick one: give me inhibition for each item below, same order please.
1. Fc1cccc(COc2ccc(Nc3ncnc4sc(-c5cccs5)cc34)cc2Cl)c1
2. CC1=C(C(=O)Nc2ccc3[nH]ncc3c2)C(c2ccc3ccccc3c2)CC(=O)N1 (stereo not given)
3. NCc1ccc(-c2nc(-c3ccc(Cl)c(O)c3)c(-c3ccncc3)[nH]2)cc1
4. COC(=O)Nc1nc2cc(Oc3ccc(NC(=O)Nc4cccc(C(=O)O)c4)cc3)ccc2[nH]1
5. O=C1Nc2ccc(C(=O)c3ccco3)cc2C1=Cc1cc(Cl)c(O)c(Cl)c1
6. O=C(Nc1n[nH]c2nc(-c3ccco3)c(Br)cc12)C1CC1
7. CC(=O)Nc1cccc(C#Cc2cncnc2Nc2ccc(OCc3cccc(F)c3)c(Cl)c2)n1
8. CC(C)=Cc1cccc2c1/C(=N/Nc1ccc(S(N)(=O)=O)cc1)C(=O)N2

1: -3.04; 2: -0.93; 3: 2.14; 4: -2.05; 5: -2.48; 6: 1.53; 7: 2.75; 8: 0.83

Could you tell me inhibition for each of these compounds? They are listed below.
1. CCn1c(-c2nonc2N)nc2ccncc21
2. COc1ccc2cc(-c3c(-c4ccncc4)nc(-c4ccc([S+](C)[O-])cc4)n3C)ccc2c1 (stereo not given)
3. CS(=O)(=O)CCNCc1ccc(-c2ccc3ncnc(Nc4ccc(OCc5cccc(F)c5)c(C(F)(F)F)c4)c3c2)o1
4. CCCN1CCC=C(c2ccc(Nc3nc(Nc4ccccc4C(N)=O)c4cc[nH]c4n3)c(C)c2)C1
5. Nc1nc(-c2ccc3c(c2)C(=Cc2cc(Br)c(O)c(Br)c2)C(=O)N3)cs1
6. CCn1c(-c2nonc2N)nc2cnc(Oc3cccc(NC(=O)c4ccc(OCCN5CCOCC5)cc4)c3)cc21
7. Nc1ncnc2occ(-c3ccc(NC(=O)Nc4cc(C(F)(F)F)cc(C(F)(F)F)c4)cc3)c12

1: 1.93; 2: 1.69; 3: 0.17; 4: 1.69; 5: -4.92; 6: -2.53; 7: 7.28

# return inhibition for each item in the list
1. CCn1c(-c2nonc2N)nc2c(C#CC(C)(C)O)nc(OC[C@@H](N)c3ccccc3)cc21
2. COc1cccc(-n2ncc3c(N/N=C/c4cccc(F)c4)ncnc32)c1
3. CCn1c(-c2nonc2N)nc2cncc(C(=O)N3CCNCC3)c21

-1.19
-6.37
1.29

// inhibition lookup, key: "CCc1cccc(NC(=O)Nc2ccc(Oc3ccc4nc(NC(=O)OC)[nH]c4c3)cc2)c1" 49.4

Every entry's value here was drawn from ChEMBL document CHEMBL1961873.
